Species: Homo sapiens
method_summary: Selectivity index, ratio of IC50 for human D2LR to IC50 for human D3R by beta-galactosidase based beta-arrestin recruitment assay
measurement_name: Ratio IC50

structure_as_smiles | measurement_name | measured
CN(C)Cc1c(C(=O)NCCCCN2CCN(c3cc(C(F)(F)F)nc(C(C)(C)C)n3)CC2)nc2ccccn12 | Ratio IC50 | 30
CC(C)(C)c1nc(N2CCN(CCCCNC(=O)c3cn4ccccc4n3)CC2)cc(C(F)(F)F)n1 | Ratio IC50 | 435
CC(C)(C)c1nc(N2CCN(CCCCNC(=O)c3cc4ccccc4[nH]3)CC2)cc(C(F)(F)F)n1 | Ratio IC50 | 75
CC(C)(C)c1nc(N2CCN(CCCCNC(=O)c3nc4ccccc4[nH]3)CC2)cc(C(F)(F)F)n1 | Ratio IC50 | 35
